Every entry's value here was drawn from ChEMBL document CHEMBL2057103.

Tested on: HeLa
run description: Cytotoxicity against human HeLa cells after 20 hrs by MTS assay
Assay type: functional, cell-based
Would you mind telling me the reported IC50 of each entry?
One number for each entry, in µM.

OC[C@@H]1C[C@H](c2ccc3ccc4cccc5ccc2c3c45)N(Cc2ccccc2O)O1 (racemic): 4

// moving on: another record for IC50
query: Request body: readout IC50, system HeLa, query OC[C@H]1C[C@H](c2ccc3ccc4cccc5ccc2c3c45)N(Cc2ccccc2O)O1 (racemic) . Return the value.
result: 11

====

Tested on: Vero
run description: Cytotoxicity against african green monkey Vero cells after 20 hrs by MTS assay
Assay type: cell-based
measurement setup: Chlorocebus sabaeus
measured attribute: IC50 (µM)
One number for each entry, in µM.

OC[C@@H]1C[C@H](c2ccc3ccc4cccc5ccc2c3c45)N(Cc2ccccc2O)O1 (racemic): 37

// moving on: another record for IC50
query: Give the measured IC50 of OC[C@H]1C[C@H](c2ccc3ccc4cccc5ccc2c3c45)N(Cc2ccccc2O)O1 (racemic) .
result: 103
